- ASSAY_SYSTEM: T1, full-length Sudan GP (GPFL) (Sudan virus (SUDV), UniProt Q7T9D9 33-650)
- T1 construct: also called Sudan GPFL; GP(S)FL
- T1 sequence: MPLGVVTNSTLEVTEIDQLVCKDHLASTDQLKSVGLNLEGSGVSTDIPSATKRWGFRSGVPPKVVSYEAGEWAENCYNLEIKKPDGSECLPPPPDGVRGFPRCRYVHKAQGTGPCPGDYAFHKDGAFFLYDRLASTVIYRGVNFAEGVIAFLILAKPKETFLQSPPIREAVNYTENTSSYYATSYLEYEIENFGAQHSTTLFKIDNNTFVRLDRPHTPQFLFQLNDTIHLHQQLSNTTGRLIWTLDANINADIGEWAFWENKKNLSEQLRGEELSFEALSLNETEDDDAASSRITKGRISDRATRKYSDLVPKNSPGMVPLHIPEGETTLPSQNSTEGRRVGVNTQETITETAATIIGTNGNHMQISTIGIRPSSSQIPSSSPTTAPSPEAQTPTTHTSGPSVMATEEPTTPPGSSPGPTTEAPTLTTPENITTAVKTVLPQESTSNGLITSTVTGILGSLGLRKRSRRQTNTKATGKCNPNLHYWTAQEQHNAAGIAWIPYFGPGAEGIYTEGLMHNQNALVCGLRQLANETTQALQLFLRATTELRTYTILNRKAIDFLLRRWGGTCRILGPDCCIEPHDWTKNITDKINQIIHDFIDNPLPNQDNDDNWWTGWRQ
- ASSAY_NOTES: BLI, Fab, pH 5.3
API: label(entry) gives 1 (yes) if the entry's kon is strictly smaller than 10000 M⁻¹ s⁻¹; on equality or larger values it gives 0 (no).

For orientation, consider the following solved cases.
{"columns": ["BINDER", "QUALITATIVE_LABEL"],
 "data": [
  ["Fab generated from 382S (Fab, V domains shown, also called 382S Fab) VH: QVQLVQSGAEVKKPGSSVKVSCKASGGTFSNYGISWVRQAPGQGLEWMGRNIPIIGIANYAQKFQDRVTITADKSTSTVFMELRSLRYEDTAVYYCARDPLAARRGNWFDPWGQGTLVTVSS VL: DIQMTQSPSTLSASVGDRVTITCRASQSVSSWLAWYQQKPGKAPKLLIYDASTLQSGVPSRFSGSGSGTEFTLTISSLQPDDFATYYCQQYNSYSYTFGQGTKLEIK", "0 (no)"],
  ["Fab generated from 315S (Fab, V domains shown, also called 315S Fab) VH: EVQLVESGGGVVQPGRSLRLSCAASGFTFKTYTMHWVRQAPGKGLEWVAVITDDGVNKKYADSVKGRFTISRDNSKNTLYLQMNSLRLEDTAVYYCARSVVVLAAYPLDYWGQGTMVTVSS VL: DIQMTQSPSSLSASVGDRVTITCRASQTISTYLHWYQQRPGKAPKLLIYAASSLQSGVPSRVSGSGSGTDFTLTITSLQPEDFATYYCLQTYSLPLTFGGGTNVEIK", "0 (no)"],
  ["Fab generated from 377S (Fab, V domains shown) VH: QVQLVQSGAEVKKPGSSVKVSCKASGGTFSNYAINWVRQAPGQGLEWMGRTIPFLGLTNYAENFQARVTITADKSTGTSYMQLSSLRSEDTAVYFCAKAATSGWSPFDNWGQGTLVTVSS VL: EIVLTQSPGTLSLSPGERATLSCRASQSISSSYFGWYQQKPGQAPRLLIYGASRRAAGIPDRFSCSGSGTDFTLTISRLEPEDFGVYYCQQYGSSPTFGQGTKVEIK", "1 (yes)"]
]}

Data request: Does the reported kon of the following binder sit strictly below 10000 M⁻¹ s⁻¹? Fab generated from 335S (Fab, V domains shown, also called 335S Fab) VH: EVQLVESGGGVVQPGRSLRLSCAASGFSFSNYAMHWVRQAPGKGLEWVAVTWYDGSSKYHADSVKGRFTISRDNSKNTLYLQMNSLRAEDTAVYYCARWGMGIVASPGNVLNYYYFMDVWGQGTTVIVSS VL: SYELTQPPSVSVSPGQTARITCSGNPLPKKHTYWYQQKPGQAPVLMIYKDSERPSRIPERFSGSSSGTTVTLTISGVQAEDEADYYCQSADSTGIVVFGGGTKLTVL
Data returned: 0 (no)

Data request: Could you please tell me whether kon recorded for Fab generated from 203S (Fab, V domains shown, also called 203S Fab) VH: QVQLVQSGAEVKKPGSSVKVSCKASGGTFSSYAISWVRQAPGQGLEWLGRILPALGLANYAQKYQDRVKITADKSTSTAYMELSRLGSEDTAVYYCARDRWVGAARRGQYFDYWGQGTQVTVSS VL: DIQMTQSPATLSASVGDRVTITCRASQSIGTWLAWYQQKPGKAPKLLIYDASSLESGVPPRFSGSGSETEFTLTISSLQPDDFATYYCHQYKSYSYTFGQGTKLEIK is less than 10000 M⁻¹ s⁻¹?
Data returned: 1 (yes)
